- System: MDA-MB-435 melanoma
- experiment.summary: NCI-60 one-dose screen, 48 h (100 = growth as untreated, 0 = no growth, -100 = all killed)
- measurement.setup: 10 µM unless noted
About 83,000 compounds went through this panel and 20% of them were active in at least one assay; those are over-represented in the sample as a whole.
Please assign no (0) whenever growth is at or above 50%, and yes (1) whenever it is below.

Examples from the recorded data:
- compound: "Nc1c(F)cc(-c2nc3cc(F)ccc3[se]2)cc1F"
  class.name: "no (0)"
- compound: "CCOC(=O)CCC(NC(=O)C(Cc1ccc(N(CCCl)CCCl)cc1)NC=O)C(=O)OCC (stereo unspecified)"
  class.name: "yes (1)"
- compound: "CN1CC(CNC(=O)OCc2ccccc2)CC2c3cccc4c3c(cn4C)CC21 (stereo unspecified)"
  class.name: "yes (1)"
- compound: "CCC1(C)CC(CCNCc2ccccc2O)(c2ccc(C)cc2)CCO1 (stereo unspecified)"
  class.name: "no (0)"

We next turn to a different compound, shown below.
Identify whether the compound CCOC(=O)N1CC1 records growth below 50%. no (0)
